# TARGET SYSTEM: Opioid receptor (Rattus norvegicus, UniProt P33533+P34975+P33535)
# EXPERIMENT DESCRIPTION: Tested for In vitro binding constant for Opioid receptors by measuring the inhibition of stereospecific binding of [3H]naloxone in rat brain homogenates
# Type: tissue-based
ASSAY READOUT: IC50 (nM)
Write down the numeric answer in nM and omit the unit.

Study these solved cases before continuing.
The recorded IC50 for entry O=C(CCCN1CCC2(c3ccc(O)cc3)CCC1C2)c1ccc(F)cc1 (stereo not given) equals 268

The recorded IC50 for entry CN1CCC2(c3ccc(O)cc3)CCC1C2 (stereo not given) equals 7290

The recorded IC50 for entry Oc1ccc(C23CCC(C2)N(CCc2ccccc2)CC3)cc1 (stereo not given) equals 340

The recorded IC50 for entry CCCN1CCC2(c3ccc(O)cc3)CCC1C2 (stereo not given) equals 6980

Below: the item to evaluate.
The recorded IC50 for entry Oc1ccc(C23CCC(C2)N(CC2CC2)CC3)cc1 (stereo not given) equals 2780
